Please respond with reported inhibition for every item in the list.
Assay: PhoP regulon inhibitors, Salmonella typhi PhoP promoter GFP reporter, confirmatory (AID 1850);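 note: 0% = induced wells with vehicle and 100% = uninduced wells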
Settings: fluorescence, 4 h, at 50 µM, stronger effect = higher value
About 1,000 (0.32%) of roughly 310,000 compounds were called active. Not all results are given here. Entries with a potency or affinity are not part of this list.
Dear colleague, please return just the value in %, with no unit written.

Query :: Name the recorded inhibition of the item COc1ccc2[nH]c3c(Cl)ncnc3c2c1 in your answer.
Result :: 1.3

Query :: Name the recorded inhibition of the item CC(C)N1CC(C(=O)Nc2ccc(C#N)cc2)CC1=O (stereo not given) in your answer.
Result :: -2.49

Query :: Name the recorded inhibition of the item COc1ccccc1CC(=O)NNS(=O)(=O)c1cccc([N+](=O)[O-])c1 in your answer.
Result :: -15.1

Query :: Name the recorded inhibition of the item O=C(COC(=O)CCC(=O)c1ccc(F)cc1)NCc1ccco1 in your answer.
Result :: 11.3

Query :: Name the recorded inhibition of the item CCCCc1ccc(NC(=O)CSc2nc(=O)n(CCN(C)C)c3c2CCC3)cc1 in your answer.
Result :: 11.9

Query :: Name the recorded inhibition of the item CC(Oc1ccccc1)C(=O)N=C1SC2CS(=O)(=O)CC2N1Cc1ccc(F)cc1 (stereo not given) in your answer.
Result :: 2.75

Query :: Name the recorded inhibition of the item COc1ccc2[nH]cc(C(=O)CN3CCCC(C)(C)C3)c2c1 in your answer.
Result :: 12.1

Query :: Name the recorded inhibition of the item c1ccc2c(c1)[nH]c1cnccc12 in your answer.
Result :: 7.53

Query :: Name the recorded inhibition of the item CCOc1ccccc1NC(=O)NNC(=O)c1ccc2ccccc2c1 in your answer.
Result :: 9

Query :: Name the recorded inhibition of the item CC(=O)Nc1nonc1NC(=O)CSc1ccccn1 in your answer.
Result :: 2.24

Query :: Name the recorded inhibition of the item Fc1ccc(Nc2nc(N3CCOCC3)nc(N3CCOCC3)n2)cc1 in your answer.
Result :: 4.25

Query :: Name the recorded inhibition of the item CC(C(=O)N(C)C1CCS(=O)(=O)C1)N1C(=O)/C(=C/c2ccc(F)cc2)SC1=S (stereo not given) in your answer.
Result :: -40

Query :: Name the recorded inhibition of the item Cc1ccc(NC(=O)CSCC(=O)Nc2ncc3c(n2)CC(c2ccco2)CC3=O)cc1 (stereo not given) in your answer.
Result :: 2.49

Query :: Name the recorded inhibition of the item CCOC(=O)[C@@H]1[C@H]2COc3cc(OC)ccc3[C@@H]2N2C(=O)N(c3ccc(C)cc3)C(=O)[C@]12C in your answer.
Result :: -2.59

Query :: Name the recorded inhibition of the item CCNc1ccc(C2(O)C(=O)c3ccccc3C2=O)cc1 in your answer.
Result :: -8.28

Query :: Name the recorded inhibition of the item COC(=O)c1cc(C(=O)c2ccc(Cl)cc2)n2c(=O)/c(=C\N(C)C)sc12 in your answer.
Result :: 4.66

Query :: Name the recorded inhibition of the item COc1ccccc1CN1CC(C(=O)NC2CCCCC2)CC1=O (stereo not given) in your answer.
Result :: 1.61

Query :: Name the recorded inhibition of the item Cc1ccc(NC(=O)CS(=O)CC(=O)Nc2ccc(N3CCOCC3)cc2)cc1Cl (stereo not given) in your answer.
Result :: 12.6

Query :: Name the recorded inhibition of the item COc1ccc(C(=O)c2no[n+]([O-])c2C(=O)c2ccc(OC)cc2)cc1 in your answer.
Result :: 21.3

Query :: Name the recorded inhibition of the item COc1ccccc1N1CCN(C(=O)/C=C/c2cccs2)CC1 in your answer.
Result :: -0.34

Query :: Name the recorded inhibition of the item C[n+]1cccc2c(Br)ccc([O-])c21 in your answer.
Result :: 4.86

Query :: Name the recorded inhibition of the item CSCCC(NC(N)=O)C(=O)NCc1cccc(Cl)c1 (stereo not given) in your answer.
Result :: 3.4

Query :: Name the recorded inhibition of the item Cc1nonc1NC(=O)CSc1ccccn1 in your answer.
Result :: 6.57

Query :: Name the recorded inhibition of the item CCCN(CCC)CC(=O)NCC1(c2ccccc2)CCOCC1 in your answer.
Result :: 5.98

Query :: Name the recorded inhibition of the item O=C(CN1C(=O)/C(=C/c2cccc(Cl)c2)SC1=S)NC1C=CS(=O)(=O)C1 (stereo not given) in your answer.
Result :: -2.52

Query :: Name the recorded inhibition of the item NCC(=O)c1cccc2ccc[n+]([O-])c12 in your answer.
Result :: -7.72

Query :: Name the recorded inhibition of the item CCOc1ccc(NC(=O)C2CCCN(S(=O)(=O)c3ccc4[nH]c(=O)ccc4c3)C2)cc1 (stereo not given) in your answer.
Result :: 4.78

Query :: Name the recorded inhibition of the item CN(C)S(=O)(=O)c1ccc(NC(=O)COC(=O)CC2CC3CCC2C3)cc1 (stereo not given) in your answer.
Result :: -11.3

Query :: Name the recorded inhibition of the item c1ccc(CNc2nc(-c3cccs3)nc3ccccc23)cc1 in your answer.
Result :: -0.13

Query :: Name the recorded inhibition of the item O=C(O)/C=C/c1ccccc1Oc1ccc(Cl)cc1Cl in your answer.
Result :: 4.42

Query :: Name the recorded inhibition of the item CCN(CC)c1ccc(/C=N/Nc2nc3ccccc3[nH]2)c(O)c1 in your answer.
Result :: 13.9

Query :: Name the recorded inhibition of the item COc1ccc(CN2CC(C(N)=O)Oc3ccccc32)cc1F (stereo not given) in your answer.
Result :: -14.6

Query :: Name the recorded inhibition of the item CC(C)c1ccc(/C=C2\SC(=O)N(CC(=O)NC3CCS(=O)(=O)C3)C2=O)cc1 (stereo not given) in your answer.
Result :: -0.28

Query :: Name the recorded inhibition of the item COC(=O)CSC1=NS(=O)(=O)c2ccccc21 in your answer.
Result :: -2.6

Query :: Name the recorded inhibition of the item COc1cccc(/C=C2\SC(=S)N(C(C)C(=O)NC3C=CS(=O)(=O)C3)C2=O)c1 (stereo not given) in your answer.
Result :: -39

Query :: Name the recorded inhibition of the item Cc1ncc(/C=C2\C(=O)Nc3ccccc32)[nH]1 in your answer.
Result :: -10.1

Query :: Name the recorded inhibition of the item CCc1cc(CNC(=O)C2CCC(=O)N(CCc3ccc(OC)cc3)C2)on1 (stereo not given) in your answer.
Result :: -3.38

Query :: Name the recorded inhibition of the item O=C(NCc1ccccn1)C1CN(S(=O)(=O)c2ccccc2)CCN1S(=O)(=O)c1ccccc1 (stereo not given) in your answer.
Result :: 1.61

Query :: Name the recorded inhibition of the item c1ccc(CN2CCC(Nc3nc(-c4cccnc4)nc4ccccc34)CC2)cc1 in your answer.
Result :: 1.57

Query :: Name the recorded inhibition of the item O=[N+]([O-])c1ccc(/C=N/Nc2ccccn2)cc1 in your answer.
Result :: -0.36

Query :: Name the recorded inhibition of the item O=c1[nH]c(C2CCN(S(=O)(=O)c3ccccc3)CC2)nc2c1nnn2Cc1ccc2c(c1)OCCO2 in your answer.
Result :: -22.2

Query :: Name the recorded inhibition of the item O=C(NCc1cccnc1)c1cc(Sc2ccc(F)cc2F)nc2ccccc12 in your answer.
Result :: -9.05

Query :: Name the recorded inhibition of the item Cn1c(Cn2c(=O)sc3ccccc32)nnc1SCC(=O)N1CCCC1 in your answer.
Result :: 0.97

Query :: Name the recorded inhibition of the item CCn1c(C)cc(/C=C2/SC(=S)N(CC(=O)O)C2=O)c1C in your answer.
Result :: 6.61

Query :: Name the recorded inhibition of the item CCNC(=O)NCCNC(=O)c1cc(OCC(F)(F)F)ccc1OCC(F)(F)F in your answer.
Result :: 1.77
